- Tested Target: UniProt:P50406
- Sequence (P50406 whole entry): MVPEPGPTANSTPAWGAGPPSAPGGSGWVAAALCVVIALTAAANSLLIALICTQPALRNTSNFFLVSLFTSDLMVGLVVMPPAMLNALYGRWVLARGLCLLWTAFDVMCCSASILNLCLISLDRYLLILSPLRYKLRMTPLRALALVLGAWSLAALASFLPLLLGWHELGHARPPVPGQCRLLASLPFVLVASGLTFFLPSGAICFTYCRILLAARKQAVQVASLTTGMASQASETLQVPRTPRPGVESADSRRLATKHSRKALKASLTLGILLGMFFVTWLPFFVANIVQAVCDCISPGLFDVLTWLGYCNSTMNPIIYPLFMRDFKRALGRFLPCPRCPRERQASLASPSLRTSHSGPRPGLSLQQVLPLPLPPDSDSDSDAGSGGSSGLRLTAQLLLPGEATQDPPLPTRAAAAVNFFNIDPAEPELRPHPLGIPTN
- Run Description: Antagonist activity at 5-HT6 receptor (unknown origin)
pKi: −log10 of the molar value.
Measured Metric: pKi

I = CN1CCc2ccc(N3C(=O)CSC34C(=O)Nc3ccccc34)cc2CC1 (single isomer, unassigned)
II = CN1CCc2ccc(N3C(=O)CSC34C(=O)Nc3ccccc34)cc2CC1 (racemic)
Which entry has a larger number for pKi, I or II ? Let me know the label of the one you choose.
I
